System: ileum shrinkage induced by histamine
Assay: inhibitory effect of the test compounds on the ileum shrinkage induced by histamine
Assay type: cell-based, guinea pigs
Details: Cavia porcellus; test compound 10^-7 M; histamine 10^-5 M; isolated ileum, Magnus tank, Tyrode solution; read-out: Inhibition ratio against shrinkage by histamine
observed_property: inhibition at 0.1 µM (%)
Return type: number; implicit unit %.

Consider the molecule C=CCc1c(OCC(O)CN2CCC(OC(c3ccc(Cl)cc3)c3ccccn3)CC2)ccc(C(C)=O)c1O (stereo not drawn) [Example 47] and give its measured inhibition at 0.1 µM. 38

Query: inhibition at 0.1 µM; subject: CCCc1c(OCC(O)CN2CCC(OC(c3ccc(F)cc3)c3ccc(F)cc3)CC2)ccc(C(C)=O)c1O (stereo not drawn) [Example 44] 43

Reported inhibition at 0.1 µM for COC(=O)c1ccc(OCCCN2CCC(OC(c3ccccc3)c3ccccc3)CC2)cc1 [Example 14] : what is it? 69

Which inhibition at 0.1 µM value is on record for C=CCc1c(OCCCN2CCC(OC(c3ccc(Cl)cc3)c3ccccn3)CC2)ccc(C(C)=O)c1O (stereo not drawn) [Example 38] ? 32

Query (molecule): C=CCc1c(OCCCN2CCC(OC(c3ccccc3)c3ccccc3)CC2)ccc2c(=O)cc(C(=O)OCCCC)oc12 [Example 41] ; field requested: inhibition at 0.1 µM 31

# query: inhibition at 0.1 µM of entry COc1cc(C(C)=O)ccc1OCCCN1CCC(OC(c2ccccc2)c2ccccc2)CC1 [Example 2] 96

Request the reported inhibition at 0.1 µM associated with COC(=O)c1cc(=O)c2cc(C(C)C)cc(NC(=O)CCCN3CCC(OC(c4ccc(F)cc4)c4ccc(F)cc4)CC3)c2o1 [Example 60] 58

Consider the molecule shown here: CCCc1c(OCC(O)CN2CCC(OC(c3ccc(Cl)cc3)c3ccccn3)CC2)ccc(C(C)=O)c1O (stereo not drawn) [Example 45] What is its recorded inhibition at 0.1 µM? 40

I'd like to know its inhibition at 0.1 µM. The molecule in question is C=CCc1c(OCCCN2CCC(OC(c3ccccc3)c3ccccc3)CC2)ccc2c(C)cc(=O)oc12 [Example 7] 67
